test system: Escherichia coli TOP10; assay: shrunken log2 fold change of peptide-encoding DNA abundance (4.5 h post-induction vs induction); higher = less antimicrobial activity (less host growth inhibition); details: time post-induction: 4.5 h; library: site-saturation at positions 5, 18, 19, 20;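 also: peptides expressed intracellularly from a pBAD plasmid library in pooled LB shake-flask culture, induced with 0.3% L-arabinose, DNA abundance read by NGS, three biological replicates, DESeq2 with apeglm shrinkage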
RECORDED_METRIC: shrunken log2 fold change
# print the numeric value only

# input Dear colleague, I am looking for the recorded shrunken log2 fold change of the following sequence: RRIRFRPPRLPRPRPRPCRQPRP
# output 0.229

# input Consider next the sequence RRIRCRPPRLPRPRPRPKNSPRP in the same way.
# output -0.159

# input Consider next the sequence RRIRCRPPRLPRPRPRPMHLPRP in the same way.
# output 0.0527

# input Consider next the sequence RRIRRRPPRLPRPRPRPWGVPRP in the same way.
# output 0.405

# input Consider next the sequence RRIRYRPPRLPRPRPRPERKPRP in the same way.
# output -0.109

# input Consider next the sequence RRIRLRPPRLPRPRPRPWNHPRP in the same way.
# output -0.347

# input Consider next the sequence RRIRERPPRLPRPRPRPCKNPRP in the same way.
# output -0.121

# input Consider next the sequence RRIRKRPPRLPRPRPRPCTVPRP in the same way.
# output 0.23

# input Consider next the sequence RRIRGRPPRLPRPRPRPYMQPRP in the same way.
# output -0.212

# input Consider next the sequence RRIRPRPPRLPRPRPRPWPQPRP in the same way.
# output 0.0953

# input Consider next the sequence RRIRLRPPRLPRPRPRPMTEPRP in the same way.
# output -0.0455

# input Consider next the sequence RRIRSRPPRLPRPRPRPKDDPRP in the same way.
# output 0.0557

# input Consider next the sequence RRIRGRPPRLPRPRPRPFFEPRP in the same way.
# output 0.428

# input Consider next the sequence RRIRGRPPRLPRPRPRPDGGPRP in the same way.
# output 0.468

# input Consider next the sequence RRIRPRPPRLPRPRPRPQELPRP in the same way.
# output 0.126
